# testDescription: ATG_NFI_CIS: Attagene CIS-FACTORIAL HepG2 Assay for human Nuclear Factor I (NFI) (AID 2282989)
# conditionSummary: HepG2 cis-regulatory reporter, NFI response element transcription; actives raise or lower the signal
# Method: ATG_CIS is a cell-based, multiplexed-readout assay that uses HepG2, a human liver cell line, with measurements taken at 24 hours after chemical dosing in a 24-well plate.ATG_NFI_CIS is one of 52 assay component(s) measured or calculated from the ATG_CIS assay. […] This assay endpoint, ATG_NFI_CIS, was analyzed with bidirectional fitting relative to DMSO as the negative control and baseline of activity. […]
Activity calls are given as the source filed them. Rule for the calls: active = hit-call score of the fitted dose curve at least 0.9, where 1 is the maximum; inactive = score below 0.9.
Write down one outcome, taken from t = active, f = inactive

Some entries whose results are on file:
compound | classification
C=CCCCCCCCCOC(C)=O | f
C/C=C/C=C/CCCCCCCO | f
CCOC(=O)c1ccccc1C | f

[in] Test call, this compound: C=CC(=O)O[C@H]1C[C@@H]2CC[C@@]1(C)C2(C)C
[out] f

[in] Test call, this compound: C=C(C)C1CC=C(C)C(OC(C)=O)C1 (stereo not given)
[out] f

[in] Test call, this compound: CCCC(CC)c1ccccc1 (stereo not given)
[out] t

[in] Test call, this compound: CC(C)COC(=O)CC(C(=O)OCC(C)C)S(=O)(=O)O (stereo not given)
[out] f

[in] Test call, this compound: CCCCOCC(C)O (stereo not given)
[out] f

[in] Test call, this compound: Cn1ccnc1
[out] f

[in] Test call, this compound: CC(C)(O)Cc1ccccc1
[out] f

[in] Test call, this compound: CCCCCCCCC(CO)CCCCCC (stereo not given)
[out] f

###

# testDescription: ATG_AP_2_CIS: Attagene CIS-FACTORIAL HepG2 Assay for human Activator Protein 2 (AP-2) (AID 2282932)
# conditionSummary: HepG2 AP-2 cis-reporter, Attagene transcription factor profiling; actives raise or lower the signal
The source made the active and inactive calls. The calls were made as follows: active = hit-call score of the fitted dose curve at least 0.9, where 1 is the maximum; inactive = score below 0.9.
Write down one outcome, taken from active, inactive

compound | classification
CC(=O)OC1CCCCC1C(C)(C)C (stereo not given) | inactive
C=C[Si](OCCOC)(OCCOC)OCCOC | inactive
Oc1ccc(/C=C/c2cc(O)cc(O)c2)cc1 | inactive
Cc1cc(=O)[nH]c(=O)[nH]1 | inactive
CC(C)OC(=O)c1ccccc1 | inactive
Cc1cc(C)c(C=O)c(C)c1 | inactive
CCN1CCCC1=O | inactive
CCOC(=O)c1ccc(C)cc1 | inactive

[in] Test call, this compound: CCC[Si](OC)(OC)OC
[out] inactive

[in] Test call, this compound: C=CC(=O)O[C@H]1C[C@@H]2CC[C@@]1(C)C2(C)C
[out] active

###

# studyTarget: Retinoic acid receptor alpha (Homo sapiens) (UniProt P10276)
# Sequence (P10276 whole entry, looked up): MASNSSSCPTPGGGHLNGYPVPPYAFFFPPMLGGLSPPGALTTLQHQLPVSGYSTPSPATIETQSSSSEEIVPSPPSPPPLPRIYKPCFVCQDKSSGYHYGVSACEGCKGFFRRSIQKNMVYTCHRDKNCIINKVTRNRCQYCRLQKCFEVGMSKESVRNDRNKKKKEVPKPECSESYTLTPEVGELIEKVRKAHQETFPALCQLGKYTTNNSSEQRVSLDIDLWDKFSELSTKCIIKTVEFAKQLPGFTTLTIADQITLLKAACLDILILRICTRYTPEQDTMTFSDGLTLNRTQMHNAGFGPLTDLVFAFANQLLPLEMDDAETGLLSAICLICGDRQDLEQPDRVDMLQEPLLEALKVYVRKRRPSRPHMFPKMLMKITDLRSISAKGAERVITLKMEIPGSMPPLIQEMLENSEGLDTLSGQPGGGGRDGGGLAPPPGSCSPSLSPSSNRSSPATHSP
# testDescription: NVS_NR_hRAR_Antagonist: NovaScreen (NVS) Nuclear Receptor Binding Assay for human Retinoic Acid Alpha Receptor Antagonism (RAR) (AID 2283358)
Records with an inconclusive call do not appear. Activity calls are given as the source filed them. Rule for the calls: active = hit-call score of the fitted dose curve at least 0.9, where 1 is the maximum; inconclusive = response in the unintended direction; inactive = score below 0.9.
Write down one outcome, taken from 1.0 (active), 0.0 (inactive)

[in] Test call, this molecule: CCCCCCCCCC[N+](C)(CCCCCCCCCC)CCC[Si](OC)(OC)OC
[out] 0.0

[in] Test call, this molecule: NC(=O)Nc1ccccc1
[out] 0.0

[in] Test call, this molecule: CCCCCCCCCCCCCCCCCCOS(=O)(=O)O
[out] 0.0

[in] Test call, this molecule: CCCCC/C=C\C/C=C\CCCCCCCC(=O)O
[out] 0.0

[in] Test call, this molecule: O=c1c(O)c(-c2ccc(O)cc2O)oc2cc(O)cc(O)c12
[out] 1.0

###

# studyTarget: Heat shock factor protein 1 (Homo sapiens) (UniProt Q00613)
# Sequence (Q00613 whole entry, looked up): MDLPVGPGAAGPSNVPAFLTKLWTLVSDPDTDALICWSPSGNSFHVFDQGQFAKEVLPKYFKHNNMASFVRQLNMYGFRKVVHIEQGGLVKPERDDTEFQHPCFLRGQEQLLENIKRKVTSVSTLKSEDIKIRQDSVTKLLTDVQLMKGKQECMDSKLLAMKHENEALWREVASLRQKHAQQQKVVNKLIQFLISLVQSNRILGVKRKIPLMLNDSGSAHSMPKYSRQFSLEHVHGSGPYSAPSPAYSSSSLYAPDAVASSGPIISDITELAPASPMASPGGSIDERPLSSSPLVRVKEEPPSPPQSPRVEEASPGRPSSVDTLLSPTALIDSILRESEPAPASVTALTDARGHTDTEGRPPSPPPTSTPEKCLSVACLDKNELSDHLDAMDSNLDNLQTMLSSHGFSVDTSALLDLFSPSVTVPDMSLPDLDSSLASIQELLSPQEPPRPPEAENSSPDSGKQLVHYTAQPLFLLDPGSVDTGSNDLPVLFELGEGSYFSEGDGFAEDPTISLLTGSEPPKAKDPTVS
# testDescription: ATG_HSE_CIS: Attagene CIS-FACTORIAL HepG2 Assay for human Heat Shock Transcription Factor 1 (HSE) (AID 2282953)
# conditionSummary: HepG2 HSE cis-reporter, Attagene RNA transcription; actives raise or lower the signal
Activity calls are given as the source filed them. The calls were made as follows: active = hit-call score of the fitted dose curve at least 0.9, where 1 is the maximum; inactive = score below 0.9.
Write down one outcome, taken from TRUE = active, FALSE = inactive

molecule | classification
C=CC(C)(CCC=C(C)C)OC(=O)C=Cc1ccccc1 (stereo not drawn) | FALSE
COC(=O)CC(C)CCC=C(C)C (stereo not drawn) | FALSE
CC(Cl)COP(=O)(OCC(C)Cl)OCC(C)Cl (stereo not drawn) | FALSE
CCOC(=O)C1=NN(c2ccc(Cl)cc2Cl)C(C)(C(=O)OCC)C1 (stereo not drawn) | TRUE
CCCC(C)C(=O)OCC (stereo not drawn) | FALSE
COC(Cc1ccccc1)OC | FALSE
CC(c1cc(C(C)(C)C)cc(C(C)(C)C)c1O)c1cc(C(C)(C)C)cc(C(C)(C)C)c1O | FALSE
CC(=O)OC1CCCCC1C(C)(C)C (stereo not drawn) | FALSE

[in] Test call, this molecule: O=C(O[C@@H]1Cc2c(O)cc(O)cc2O[C@@H]1c1cc(O)c(O)c(O)c1)c1cc(O)c(O)c(O)c1
[out] FALSE

[in] Test call, this molecule: CC(C)=CCl
[out] FALSE

[in] Test call, this molecule: N#Cc1ccc(C(c2ccc(C#N)cc2)n2cncn2)cc1
[out] FALSE

[in] Test call, this molecule: O=C1CCCCCCCCCCCN1
[out] FALSE

[in] Test call, this molecule: O=C1CCCN1C1CCCCC1
[out] FALSE

###

Could you please report measured AC50 for the items listed next?
# studyTarget: human Matrix Metalloproteinase-9 (MMP9), MMP9 (gene 4318) (UniProt P14780)
# Sequence (P14780 whole entry, looked up): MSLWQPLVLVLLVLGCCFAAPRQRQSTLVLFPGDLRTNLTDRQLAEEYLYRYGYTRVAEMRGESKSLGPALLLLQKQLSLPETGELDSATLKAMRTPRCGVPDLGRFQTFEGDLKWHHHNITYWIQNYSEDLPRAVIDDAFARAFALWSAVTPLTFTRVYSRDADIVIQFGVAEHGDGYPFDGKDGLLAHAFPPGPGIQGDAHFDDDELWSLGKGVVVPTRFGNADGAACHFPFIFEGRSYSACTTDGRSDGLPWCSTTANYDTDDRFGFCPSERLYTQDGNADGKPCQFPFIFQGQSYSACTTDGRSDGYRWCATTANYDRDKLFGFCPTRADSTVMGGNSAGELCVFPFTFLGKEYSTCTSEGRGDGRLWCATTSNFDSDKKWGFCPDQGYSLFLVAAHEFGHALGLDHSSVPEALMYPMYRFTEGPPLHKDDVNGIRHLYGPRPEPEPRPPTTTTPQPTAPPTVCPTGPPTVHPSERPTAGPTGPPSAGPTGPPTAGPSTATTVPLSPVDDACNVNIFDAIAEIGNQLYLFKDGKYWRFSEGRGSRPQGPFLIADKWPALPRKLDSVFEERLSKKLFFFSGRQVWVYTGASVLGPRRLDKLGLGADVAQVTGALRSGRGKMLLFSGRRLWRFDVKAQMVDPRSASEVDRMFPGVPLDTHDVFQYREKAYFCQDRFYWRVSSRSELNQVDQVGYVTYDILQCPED
# testDescription: NVS_ENZ_hMMP9: NovaScreen (NVS) Enzymatic Assay for human Matrix Metalloproteinase-9 (MMP9) (AID 2283190);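 note: cell-free recombinant MMP9 protease activity read by fluorescent substrate signal; active means inhibition seen as loss of fluorescence signal versus DMSO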
Records with an inconclusive call do not appear. Calls of active or inactive are those of the source. Rule for the calls: active = hit-call score of the fitted dose curve at least 0.9, where 1 is the maximum; inconclusive = response in the unintended direction; inactive = score below 0.9.

Would you please look over these solved cases?
compoundString | reportedEndpoint | recordedValue
CC(C)CCCCCOC(=O)CS | AC50 | 5.63 µM (active)
CCCSSCCC | AC50 | 6.62 µM (active)
CC(C)C(=O)OCCOc1ccccc1 | AC50 | 7.19 µM (active)
CO[Si](CCCS)(OC)OC | AC50 | 12.4 µM (active)
CCOC(=O)C1=NOC(c2ccccc2)(c2ccccc2)C1 | AC50 | 2.32 µM (active)

# per-item lookup of AC50; items listed below
1. COc1ccc(C(=O)/C(Br)=C\C(=O)O)cc1
2. CCCCOC(=O)CCC(C)=O
3. C=CCCCCCCCCC=O
4. CCCCCCCO
5. CCCCCCOC(=O)CCCCC(=O)OCCCCCC

[out]
["4.96 µM (active)", "6.97 µM (active)", "5.07 µM (active)", "0.197 µM (active)", "7.16 µM (active)"]

###

# testDescription: CCTE_Shafer_MEA_acute_network_burst_percentage: CCTE's Neural Acute Assay for Percentage of Network Bursts, Shafer Lab (AID 2284022);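 note: curves fitted for loss so actives lower network burst percentage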;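 for outcome: rat primary cortical neuron networks on multiwell MEA recorded 40 min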
The source made the active and inactive calls. How the source made its calls: active means hit-call score of the fitted dose curve at least 0.9, where 1 is the maximum; inactive means score below 0.9. Peptide text beside a SMILES is read from it.
Write down one outcome, taken from yes for active, no for inactive

compound | classification
Cc1c(C(=O)c2c[nH]n(C)c2=O)ccc(S(C)(=O)=O)c1C1=NOCC1 | no
CCCCCCCCCCCC(=O)N(C)CC(=O)O | yes
Nc1nc(N)nc(-c2ccccc2)n1 | no
CC(CCC(=O)O)(c1ccc(O)cc1)c1ccc(O)cc1 | no
COC(=O)[C@H](Cc1ccccc1)NC(=O)[C@@H](N)CC(=O)O (H-Asp-Phe-OMe) | no

Field: next compound
[in] Test call, this compound: Nc1cccc(N)n1
[out] yes

###

# testDescription: ACEA_ER_80hr: ACEA Biosciences xCELLigence Real-Time Cell Analysis on Estrogen Receptor Agonism for Proliferation (AID 2282667)
# conditionSummary: T47D proliferation, impedance (xCELLigence), 80 h
Records with an inconclusive call do not appear. Active and inactive are the calls of the source. How the source made its calls: active means hit-call score of the fitted dose curve at least 0.9, where 1 is the maximum; inconclusive means response in the unintended direction; inactive means score below 0.9.
Write down one outcome, taken from active, inactive

molecule | classification
N#Cc1ccc(C2CCCc3cncn32)cc1 (stereo unspecified) | active
Cc1ccc(S(=O)(=O)N=C=O)cc1 | inactive
CO[Si](C)(C)OC | inactive
CCc1cccc(CC)c1 | inactive
COC(=O)c1ccc(C(=O)OC)c(C(=O)OC)c1 | inactive
O=C(O)C1CCC(C(=O)O)CC1 (stereo unspecified) | inactive
Cc1noc(NS(=O)(=O)c2ccc(N)cc2)c1C | inactive
CCCCCC1=CCCC1=O | active

Field: next molecule
[in] Test call, this molecule: C=CC(=O)OCC(C)OCC(C)OCC(C)OC(=O)C=C (stereo unspecified)
[out] inactive

###

# testDescription: ATG_MRE_CIS: Attagene CIS-FACTORIAL HepG2 Assay for human Metal Responsive Element (MRE) (AID 2282954)
# conditionSummary: HepG2 MRE cis-reporter transcription, Attagene multiplex; actives raise or lower the signal
Calls of active or inactive are those of the source. How the source made its calls: active means hit-call score of the fitted dose curve at least 0.9, where 1 is the maximum; inactive means score below 0.9.
Write down one outcome, taken from true = active, false = inactive

Some entries whose results are on file:
compound | classification
C=C(C)OC(C)=O | false
CC=C(C)C=CC=C(C)C | false
Cc1ccc([N+](=O)[O-])cc1N | false
N#Cc1ccc(C(c2ccc(C#N)cc2)n2cncn2)cc1 | false
C=C[Si](OCCOC)(OCCOC)OCCOC | false

[in] Test call, this compound: C=C(C)C1CC=C(C)C(OC(C)=O)C1 (centres undefined)
[out] false

[in] Test call, this compound: CC1CCC(C(C)(C)S)C(=O)C1 (centres undefined)
[out] false

[in] Test call, this compound: CC(CCC(=O)O)(c1ccc(O)cc1)c1ccc(O)cc1
[out] false

[in] Test call, this compound: C1CCSC1
[out] false

[in] Test call, this compound: CCN1CN(CC)CN(CC)C1
[out] true

[in] Test call, this compound: CCCc1ccc(O)c(OC)c1
[out] false

[in] Test call, this compound: CC(Cl)COP(=O)(OCC(C)Cl)OCC(C)Cl (centres undefined)
[out] false

[in] Test call, this compound: CCc1cccc(C)c1N(C(=O)CS(=O)(=O)O)C(C)COC (centres undefined)
[out] false

[in] Test call, this compound: CCCC=C(C=O)CC
[out] false

[in] Test call, this compound: COc1nccnc1CC(C)C
[out] false

[in] Test call, this compound: CC(=O)CC(=O)Nc1ccccc1C
[out] false

[in] Test call, this compound: CC(C)[N+](C)(CCOC(=O)C1c2ccccc2Oc2ccccc21)C(C)C
[out] false

[in] Test call, this compound: CCCCCCCO
[out] false

[in] Test call, this compound: O=S(=O)(O)c1ccc(Nc2nc(Nc3ccc(C=Cc4ccc(Nc5nc(Nc6ccc(S(=O)(=O)O)cc6)nc(N(CCO)CCO)n5)cc4S(=O)(=O)O)c(S(=O)(=O)O)c3)nc(N(CCO)CCO)n2)cc1
[out] false

[in] Test call, this compound: CCCCc1ccc(Cl)cc1
[out] false

[in] Test call, this compound: CC(=O)OC1CCCCC1
[out] false
